Molecular target: Progesterone receptor (Homo sapiens, UniProt P06401); further: assay procedure not described here
Sequence (P06401 whole entry): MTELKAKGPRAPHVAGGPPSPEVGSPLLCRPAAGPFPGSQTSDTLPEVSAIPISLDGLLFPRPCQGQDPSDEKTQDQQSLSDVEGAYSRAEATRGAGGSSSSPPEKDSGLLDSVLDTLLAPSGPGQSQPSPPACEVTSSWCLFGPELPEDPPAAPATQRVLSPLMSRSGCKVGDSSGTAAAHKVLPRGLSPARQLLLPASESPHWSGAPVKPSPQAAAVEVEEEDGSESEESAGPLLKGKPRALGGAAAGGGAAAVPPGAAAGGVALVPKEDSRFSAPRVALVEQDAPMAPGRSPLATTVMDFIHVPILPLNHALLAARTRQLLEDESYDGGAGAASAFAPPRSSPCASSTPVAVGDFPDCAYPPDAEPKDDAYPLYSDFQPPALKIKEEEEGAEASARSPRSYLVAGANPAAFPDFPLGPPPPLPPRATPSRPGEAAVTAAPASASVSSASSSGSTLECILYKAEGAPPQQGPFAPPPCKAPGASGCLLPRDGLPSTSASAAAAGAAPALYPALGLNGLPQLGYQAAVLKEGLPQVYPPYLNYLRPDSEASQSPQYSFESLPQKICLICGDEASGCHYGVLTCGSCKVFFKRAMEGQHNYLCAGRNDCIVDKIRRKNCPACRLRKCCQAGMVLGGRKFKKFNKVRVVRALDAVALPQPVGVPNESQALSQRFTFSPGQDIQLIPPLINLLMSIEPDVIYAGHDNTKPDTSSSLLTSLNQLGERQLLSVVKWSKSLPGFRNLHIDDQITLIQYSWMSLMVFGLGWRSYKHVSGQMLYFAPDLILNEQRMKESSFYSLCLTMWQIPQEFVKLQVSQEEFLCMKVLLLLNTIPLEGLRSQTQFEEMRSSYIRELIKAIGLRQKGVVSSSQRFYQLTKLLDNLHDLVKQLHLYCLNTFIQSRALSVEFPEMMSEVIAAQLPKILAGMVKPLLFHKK
ASSAY METRIC: AC50

• CCCCOc1ccc(C(=O)CCN2CCCCC2)cc1 = > 30 µM
• O=c1c(O)c(-c2ccc(O)c(O)c2)oc2cc(O)cc(O)c12 = 14.1 µM
• Cc1nc(Nc2ncc(C(=O)Nc3c(C)cccc3Cl)s2)cc(N2CCN(CCO)CC2)n1 = > 30 µM
• CC(C)[C@H](N)C(=O)OCCOCn1cnc2c(=O)[nH]c(N)nc21 = > 30 µM
• Fc1ccc([C@@H]2CCNC[C@H]2COc2ccc3c(c2)OCO3)cc1 = > 30 µM

q: If you can, please state the reported AC50 value of Cc1cc(=O)n(-c2ccccc2)n1C [ANTIPYRINE] .
a: > 30 µM

q: If you can, please state the reported AC50 value of "O=C(O)Cc1ccccc1Oc1ccc(Cl)cc1Cl" .
a: > 30 µM

q: If you can, please state the reported AC50 value of O=C1Nc2ccc(Cl)cc2C(c2ccccc2Cl)=NC1O (centres undefined) .
a: 26.2 µM

q: If you can, please state the reported AC50 value of CN(Cc1cnc2nc(N)nc(N)c2n1)c1ccc(C(=O)N[C@@H](CCC(=O)O)C(=O)O)cc1 [METHOTREXATE] .
a: > 30 µM

This collection of values is drawn from ChEMBL document CHEMBL5291721.
